tested on: cocklebur; assay: Test B pre/postemergence cocklebur; format: in vivo, Xanthium strumarium; details: Preemergence, Rate 500 g/ha; scale of 0 to 10 where 0 is no effect and 10 is complete control
Some compounds, each annotated with its measured Cocklebur plant response rating.
Answer as a number with no unit attached.

Below: 7 compounds and their reported Cocklebur plant response rating.
compound	Cocklebur plant response rating
Cc1c(-n2c(=O)on(C(=O)N(c3ccc(F)cc3F)C(C)C)c2=O)ccc2ccccc12	0
CC(C)C(C)n1c(=O)on(C(=O)N(c2ccc(F)cc2F)C(C)C)c1=O (centres unmarked)	0
CC(C)N(C(=O)n1oc(=O)n(CCc2ccccc2)c1=O)c1ccc(F)cc1F	0
CC(C)N(C(=O)n1oc(=O)n(C2CCCCCC2)c1=O)c1ccc(Cl)cc1	0
CC(C)N(C(=O)n1oc(=O)n(CCCCF)c1=O)c1ccccc1	0
CCOC(=O)C=C(Cn1c(=O)on(C(=O)N(c2ccccc2)C(C)C)c1=O)OCC	3
CCOCn1c(=O)on(C(=O)N(c2ccccc2)C(C)C)c1=O	2

Next:
The compound CCc1nc(C)c(C(C)n2c(=O)on(C(=O)N(c3ccc(Cl)cc3)C(C)C)c2=O)s1 (centres unmarked) showed Cocklebur plant response rating equal to 0
